Measured values drawn from paper PMC10825549 for this set.

experiment: Metabolic stability in liver microsomes; format: in vitro ADME; settings: dog, T1/2, Study 2, n = 1
RECORDED_ENDPOINT: half-life (min)
Write the answer as a number in min, unit excluded.

Request the reported half-life associated with CCOC(=O)c1cnc2[nH]ccc2c1N[C@@H]1CCCN(C(=O)CC#N)C1
30

###

target: BTK (Homo sapiens, UniProt Q06187)
Sequence (Q06187 whole entry): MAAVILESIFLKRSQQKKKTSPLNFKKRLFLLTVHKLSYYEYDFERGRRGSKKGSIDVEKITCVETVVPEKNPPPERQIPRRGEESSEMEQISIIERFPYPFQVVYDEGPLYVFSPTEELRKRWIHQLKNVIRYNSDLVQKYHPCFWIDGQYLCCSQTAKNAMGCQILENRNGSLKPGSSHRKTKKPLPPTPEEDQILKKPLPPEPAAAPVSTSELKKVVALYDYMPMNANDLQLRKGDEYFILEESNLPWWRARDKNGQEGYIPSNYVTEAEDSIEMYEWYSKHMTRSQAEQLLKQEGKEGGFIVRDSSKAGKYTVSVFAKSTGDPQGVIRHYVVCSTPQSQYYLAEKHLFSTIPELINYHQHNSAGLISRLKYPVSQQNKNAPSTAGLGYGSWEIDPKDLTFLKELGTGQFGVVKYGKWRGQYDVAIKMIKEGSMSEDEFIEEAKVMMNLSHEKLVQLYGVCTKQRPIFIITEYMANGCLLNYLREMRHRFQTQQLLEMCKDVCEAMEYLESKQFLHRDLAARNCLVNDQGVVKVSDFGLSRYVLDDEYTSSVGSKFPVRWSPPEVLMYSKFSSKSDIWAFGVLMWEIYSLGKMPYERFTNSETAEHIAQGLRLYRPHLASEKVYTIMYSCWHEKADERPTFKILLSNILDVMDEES
RECORDED_ENDPOINT: pIC50
Keep it numeric: pIC50 is minus log10 of the concentration in mol/L.

Give pIC50 (BTK (Homo sapiens, UniProt Q06187)) of the following compound: CCOC(=O)c1cnc2[nH]ccc2c1N[C@@H]1CCCN(C(=O)CC#N)C1
6.68
